- experimental-protocol: blockers of RIG-like receptor reporter activation – cell-based, Sendai virus stimulus, luciferase, 10K MLSCN set, TLR/RLR signaling modifier project, primary screen (AID 602276);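 also: firefly luciferase from ISG56 promoter only with Renilla not read in this screen; 0% = Sendai virus plus DMSO and 100% = medium plus DMSO without virus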
- condition-parameters: HEK293 RL24 IRF3 luciferase reporter, at 10 µM, stronger effect = higher value
Activity calls are given as the source filed them.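 The calls were made as follows: active = inhibition at or above 50% at 10 µM; inactive = inhibition below 50%.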
value-kind: inhibition

Use the examples below as a reference point.
compound	inhibition
Cc1nc2scc(-c3ccco3)c2c(=O)n1/N=C/N(C)C	-2.39% (inactive)
CCOc1ccc(-c2nnc(N)s2)cc1	-27% (inactive)
COc1ccc2c(c1OC)C(=O)N(c1ccc3c(c1)CCC3)C2=O	8.67% (inactive)
Cc1ccc(CN2C(=O)CCC2C(=O)NC2CCCC2)cc1 (stereo unspecified)	12.8% (inactive)
O=C(O)C1CCCN1C(=O)c1cccs1 (stereo unspecified)	5.87% (inactive)

Now consider the entry below.
Q) Look up inhibition for this compound: `Cc1cc(NC(=O)COc2cccc(Oc3ccccc3)c2)no1`
A) 10.8% (inactive)

---

- measured-target: Voltage-gated potassium channel subunit beta-2 (Rattus norvegicus) (UniProt P62483)
- Sequence (P62483 whole entry, looked up): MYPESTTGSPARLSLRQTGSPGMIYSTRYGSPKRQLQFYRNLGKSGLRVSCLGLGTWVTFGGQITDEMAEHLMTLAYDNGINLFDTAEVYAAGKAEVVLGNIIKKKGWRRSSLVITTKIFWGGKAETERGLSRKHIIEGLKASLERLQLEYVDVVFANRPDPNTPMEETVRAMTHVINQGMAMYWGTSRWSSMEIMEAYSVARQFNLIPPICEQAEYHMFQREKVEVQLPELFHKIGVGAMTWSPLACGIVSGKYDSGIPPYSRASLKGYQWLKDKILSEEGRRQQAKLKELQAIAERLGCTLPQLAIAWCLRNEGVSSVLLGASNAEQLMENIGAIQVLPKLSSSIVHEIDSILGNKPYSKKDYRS
- experimental-protocol: enhancers of rat Kvbeta2 NADPH turnover – biochemical, NADPH fluorescence, primary screen (AID 623);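 also: fluorescence intensity change per second fitted from 20 to 320 s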
- condition-parameters: Recombinant KvBeta, NADPH fluorescence decrease slope, 10 min; at 10 µM; stronger effect = lower value
value-kind: NADPH fluorescence slope
Numbers only.

Previously resolved entries follow.
compound	numeric-readout
O=C(O)CN1C(=O)C2(OCCCO2)c2ccccc21	6.1e-05
O=C(c1ccccc1-c1nc(-c2ccccc2)no1)N1CCCC1	-2.8e-05
COc1cc(C2c3c(n[nH]c3C)C(=O)N2c2ccc(Br)cc2)ccc1O (stereo not drawn)	-1.5e-06

Give NADPH fluorescence slope for each of the items listed below.
1. CCOc1cccc(C(=O)N(Cc2ccco2)C2CCS(=O)(=O)C2)c1 (stereo not drawn)
2. Cc1cccc(Cc2nnc(NC(=O)c3cccc(S(=O)(=O)N4CCOCC4)c3)s2)c1
3. CCOCCCNC(=O)C1CCN(S(=O)(=O)N(CC(C)C)CC(C)C)CC1

A)
1: -6.1e-05; 2: -7.5e-06; 3: -5.5e-05

Report NADPH fluorescence slope for every entry below.
1. C=CCn1c(SCC(=O)NC2CCCCC2)nnc1-c1sc(N)nc1C
2. O=C(Nc1nonc1NC(=O)C1CCCCC1)C1CCCCC1
3. CCCC(=O)Nc1cc(C)c2c(=O)oc3ccccc3c2n1
4. c1cn(C23CC4CC(CC(C4)C2)C3)cn1
5. Cc1cc(C(=O)CSc2nc3ccccc3[nH]2)c(C)n1C

A)
1: -3.2e-05; 2: 3.9e-06; 3: -7.8e-05; 4: -5.6e-05; 5: -5.2e-05

Please look at the items below and tell me NADPH fluorescence slope for each one, in order.
1. COc1ccc(OCC(=O)N2CC3(C)CC2CC(C)(C)C3)cc1 (stereo not drawn)
2. Cc1ccc(N=C2NC(=O)CS2)c(C)c1
3. O=C(c1ccc(COc2c(F)c(F)c(F)c(F)c2F)o1)N1CCOCC1
4. O=C(NCCOC(=O)C1COc2ccccc2O1)C1COc2ccccc2O1 (stereo not drawn)
5. CC(=O)Nc1c(C(=O)O)[nH]c2ccccc12
6. CC1=C(C)CC2C(=O)N(c3cccc4ccccc34)C(=O)C2C1 (stereo not drawn)
7. Cc1c(C(=O)O)c(-c2ccccc2)nn1-c1ccccc1

A)
1: -6.6e-06; 2: -2.8e-05; 3: -3.8e-05; 4: -3.8e-05; 5: -2e-05; 6: -2.7e-05; 7: -0.000126

Please report NADPH fluorescence slope for every entry that follows.
1. CC1(C)CC(=O)c2sc(NS(C)(=O)=O)nc2C1
2. CCOc1ccc(C(=O)Nc2ccc(N3CCN(C)CC3)cc2)cc1Br
3. Cc1ccc(S(=O)(=O)C(C#N)c2nc3ccccc3nc2N2CCCCC2)cc1 (stereo not drawn)
4. COc1ccccc1Cn1nnc2c(=O)[nH]c(C3CCN(C(=O)c4ccccc4Cl)CC3)nc21
5. COc1ccccc1NC(=O)N(C1CCCC1)C1CCN(C(C)=O)CC1

A)
["-4.4e-05", "-3.6e-05", "2e-06", "-1.1e-05", "-3.7e-05"]
